Entries and their average fluorescence intensity values follow.
target: T1, monkey 4-1BB on CHOK1 cells (monkey); experiment: FACS, CHOK1-c4-1BB cells; Ab 0.4 ug/ml
T1 construct: whole, on cells; also called CHOK1-c4-1BB
Give the value in MFI but do not write MFI after it.

Consider the reported average fluorescence intensity for these binders:
172E3E3 (antibody, V domains shown) VH: QVQLQESGPGLVKPSGTLSLTCAVSGGSISSSNWWSWVRQPPGKGLEWIGEIYHSGSTNYNPSLKSRVTISVDKSKNQLSLNLSSVTAADTAVYYCARQGGVAGTLYWYFDLWGRGTLVTVSS VL: DIVMTQSPLSLPVTPGEPASISCRSSQGLLHSNGYNYLDWYLQKPGQSPQLLIYLGSNRASGVPDRFIGSGSGTDFTLKIRRVEAEDVGVYYCMQVLQTPWTFGQGTKVEIK | 159
118F3A2 (antibody, V domains shown) VH: QVQLQQWGAGLLKPSETLSLTCGVYGGSFSTNYWSWIRQSPGKGLEWIGEINHSGNTEYNPSLKSRLTISIDTSKNQFSLKLTSVTAADTAVYYCARMGYHSPSFDFWGQGVLVTVSS VL: KIVMTQSPATLSVSPGERATLPCRVSQGIGSNLAWYQQKPGQAPRLLIYGASTRATGVPARFSGSGSGSEFTLTISSLQSEDLALYYCQQYNNWPLTFGGGTKVEIK | 408
100F3C4 (antibody, V domains shown) VH: QVQLQESGPGLVKPSGTLSLTCAVSGGSISSSNWWSWVRQPPGKGLEWIGEIYHSGSTNYNPSLKSRVTMSVDKSKNQFSLELRSVTAADTAVYYCARDAVDAYYYYYGMDVWGQGTTVTVSS VL: DIQLTQSPSFLSASVGDRVTITCRASQGISSYLAWYQQKPGKAPKLLIYAASTLQSGVPSRFSGSGSGTEFTLTISSLQPEDFATYYCQHLNSYPFTFGPGTKVDLK | 204

Prompt: Give the value of average fluorescence intensity reported for the following: 170D7F2 (antibody, V domains shown) VH: QVQLVQSGAEVKKPGASVKVSCKASGYTFTSYDINWVRQATGQGLEWMGWMNPNSGNTGYAQKFQGRVTMTRNTSISTAYMELSSLRSEDTAVYYCARETGPFDYWGQGTLVTVSS VL: DIQMTQSPSSLSASVGDRVTITCRASQRINNYLNWYQQKPGKAPKLLIYGASSLQSGVPSRFSGSGSGTDFTLTISSLQPEDFATYYCQQSYSTPFTFGPGTKVDIK
Response: 304

Prompt: Give the value of average fluorescence intensity reported for the following: 57B3D10 (antibody, V domains shown, also called 4-1BB fully human antibody 57B3D10) VH: QVQLQESGPGLVKPSETLSLTCTVSGGSISSYYWSWIRQPPGKGLEWIGYIYYSGSTNYNPSLKSRVTISVDTSKSQFSLKLTSVTAADTAVYYCAKDSDYYGSGSYSYWYFDLWGRGTLVTVSS VL: EIVMTQSPATLSVSPGERATLSCRASQSVSSNLAWYQQKPGQAPRLLIYGASTRAPGIPARFSGSGSGTEFTLTISSLQSEDFAVYYCQQYNNWPLTFGGGTKVEIK
Response: 549
